- Test system: 885512-296-R-J2-PDC complex spheroid viability
- procedure.summary: Anticancer human tumor 885512-296-R-J2-PDC patient-derived breast carcinoma cell line growth inhibition; active = viability on the fitted dose curve at most 10% of control; inactive = the rest
- condition.parameters: second compound 10 µM; first compound 0.949 µM
Can you answer with just one of these options? 1 (yes) = active, 0 (no) = inactive

Example entries begin here.
O=C(C=Cc1cccc(S(=O)(=O)Nc2ccccc2)c1)NO + NC1CC1c1ccc(-c2cccc(O)c2)cc1 ... 0 (no)
Nc1ccccc1NC(=O)c1ccc(CNC(=O)OCc2cccnc2)cc1 + NC1CCC(NC2CC2c2ccccc2)CC1 ... 1 (yes)
Nc1ccccc1NC(=O)c1ccc(CNC(=O)OCc2cccnc2)cc1 + NC1CC1c1ccc(-c2cccc(O)c2)cc1 ... 1 (yes)
CCN(c1cc(-c2ccc(CN3CCOCC3)cc2)cc(C(=O)NCc2c(C)cc(C)[nH]c2=O)c1C)C1CCOCC1 + NC1CCC(NC2CC2c2ccccc2)CC1 ... 0 (no)
CCN(c1cc(-c2ccc(CN3CCOCC3)cc2)cc(C(=O)NCc2c(C)cc(C)[nH]c2=O)c1C)C1CCOCC1 + NC1CC1c1ccc(-c2cccc(O)c2)cc1 ... 0 (no)

Note: attention shifts to another entry.
-- ask Assay outcome for COc1cc(C2c3cc4c(cc3C(OC3OC5COC(C)OC5C(O)C3O)C3COC(=O)C23)OCO4)cc(OC)c1O (stereo not given) + NC1CC1c1ccc(-c2cccc(O)c2)cc1 : what was it?
-- reply 1 (yes)

----------
- Tested on: 885512-296-R-J2-PDC complex spheroid viability
- procedure.summary: Anticancer human tumor 885512-296-R-J2-PDC cell line growth inhibition; active = viability on the fitted dose curve at most 10% of control; inactive = the rest;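 also: spheroids exposed to agents for 7 days before viability read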
- condition.parameters: second compound 1 µM; first compound 0.03 µM
Would you mind answering with one of these outcomes? active, inactive

Nc1ccccc1NC(=O)c1ccc(CNC(=O)OCc2cccnc2)cc1 + NC1CCC(NC2CC2c2ccccc2)CC1 ... inactive

-- ask Look up the recorded call for CCc1c2c(nc3ccc(O)cc13)-c1cc3c(c(=O)n1C2)COC(=O)[C@]3(O)CC + NC1CC1c1ccc(-c2cccc(O)c2)cc1 in this test.
-- reply active

-- ask Outcome logged for Nc1ncn(C2CC(O)C(CO)S2)c(=O)n1 (configuration not stated) + NC1CC1c1ccc(-c2cccc(O)c2)cc1 in this assay:
-- reply inactive

----------
- System: 885512-296-R-J2-PDC complex spheroid viability
- procedure.summary: Anticancer human tumor 885512-296-R-J2-PDC cell line growth inhibition;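 also: spheroids exposed to agents for 7 days before viability read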
- condition.parameters: second compound 1 µM; first compound 1 µM; active compounds read low
Label scheme, based on viability, T/C: LOW (below 10%), MEDIUM (10% to below 80%), HIGH (80% or more)

Take a look at these entries with their results.
COc1ccc([C@@H](O)c2cc(-c3ncnc4cc(N5CCOCC5)ccc34)c(F)cc2Cl)nn1 + NC1CCC(NC2CC2c2ccccc2)CC1 ... HIGH
CC1COCCN1c1cc(C2(S(C)(=N)=O)CC2)nc(-c2ccnc3[nH]ccc23)n1 (centres undefined) + NC1CC1c1ccc(-c2cccc(O)c2)cc1 ... LOW
CC1COCCN1c1cc(-c2ccnn2C)c2ccnc(-c3ccn[nH]3)c2n1 (centres undefined) + NC1CC1c1ccc(-c2cccc(O)c2)cc1 ... LOW

-- ask Which viability, T/C band matches O=C(c1cc(Cc2n[nH]c(=O)c3ccccc23)ccc1F)N1CCN(C(=O)C2CC2)CC1 + NC1CCC(NC2CC2c2ccccc2)CC1 ?
-- reply MEDIUM

-- ask # bin label for O=C(c1cc(Cc2n[nH]c(=O)c3ccccc23)ccc1F)N1CCN(C(=O)C2CC2)CC1 + NC1CC1c1ccc(-c2cccc(O)c2)cc1
-- reply MEDIUM

-- ask Assign a bin to Nc1ncn(C2CC(O)C(CO)O2)c(=O)n1 (centres undefined) + NC1CCC(NC2CC2c2ccccc2)CC1
-- reply MEDIUM
